system: NCI-H322M lung; assay: NCI-60 one-dose screen, 48 h; conditions: 10 µM
The panel holds about 83,000 compounds, 20% with a hit somewhere; the sample as a whole holds those more often. Activity calls are given as the source filed them. The calls were made as follows: active = growth percent below 10; inactive = the rest.
Please reply with one of these outcomes: active, inactive

# COMPOUND, ASSIGNED LABEL
data = [
    ("O=C1CCC(N2Cc3cc(CC(=O)Nc4ccc(N5CCCCC5)cc4)ccc3C2=O)C(=O)N1 (stereo not given)", "inactive"),
    ("O=C(CNc1nc(-c2ccccc2)cs1)Nc1ccc([N+](=O)[O-])cc1", "active"),
    ("O=C(CNc1nc(-c2ccccc2)cs1)Nc1ccccc1", "active"),
    ("O=C(NO)c1ccc(-c2nc3ccc4[nH]ncc4c3c3c2CCCC3)cc1", "active"),
]

Now examine the next entry.
**Q:** Field: outcome | Entry: COc1cc(C2CC(c3ccccc3)=Nc3c(N)nc(N)nc3N2)ccc1Oc1nc(Nc2ccc(F)cc2)nc(N(C)C)n1 (stereo not given)
**A:** inactive
